Tested on: RXRa DBDmut IVT, anti-RXR (DBD mutation: RXRa K156A/R161A, NR concentration 90 nM)
assay_details: PBM binding z-score (relative to random genomic background probes); higher = stronger binding; sequences stand for … in GC…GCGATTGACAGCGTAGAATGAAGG
# PBM binding z-score listing for each entry below
measure_name: PBM binding z-score

>>> numeric_value("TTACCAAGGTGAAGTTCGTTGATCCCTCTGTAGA")
1.02
>>> numeric_value("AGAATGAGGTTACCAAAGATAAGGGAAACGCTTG")
1.02
>>> numeric_value("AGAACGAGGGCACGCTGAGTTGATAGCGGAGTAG")
1.97
>>> numeric_value("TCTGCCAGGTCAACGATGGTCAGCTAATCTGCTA")
1.41
>>> numeric_value("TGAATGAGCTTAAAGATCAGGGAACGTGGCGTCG")
-1.41
>>> numeric_value("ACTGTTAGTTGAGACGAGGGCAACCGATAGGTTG")
0.337
